Target: MMP-2 (Homo sapiens, UniProt P08253)
Construct: made in house; host or cells: MMP-2-transfected p2AHT2 cells
Assay: MMP-2 inhibition (in vitro Ki)
Assay type: biochemical
Details: Table 9; read-out: MMP-2 Ki (IC-50)
MEASURED_METRIC: Ki (nM)

[[record]]
substance_smiles = "CCCCc1cnc(C2CCN(S(=O)(=O)C3(C(=O)NO)CCOCC3)CC2)nc1"
unit_spec = "nM"
readout_value = 70

[[record]]
substance_smiles = "O=C(/C=C/C=C/C1CCN(S(=O)(=O)C2(C(=O)NO)CCOCC2)CC1)N1C[C@H]2CCCC[C@H]2C1"
unit_spec = "nM"
readout_value = 213

[[record]]
substance_smiles = "O=C(NO)C1(S(=O)(=O)N2CCN(c3ccc(CCCC(F)(F)F)cc3)CC2)CCN(CC(F)(F)F)CC1"
unit_spec = "nM"
readout_value = 2.06

[[record]]
substance_smiles = "O=C(NCCCCC1CCN(S(=O)(=O)C2(C(=O)NO)CCOCC2)CC1)C(=O)c1cccs1"
unit_spec = "nM"
readout_value = 3.25

[[record]]
substance_smiles = "COC(=O)CCCC#Cc1ccc(C2CCN(S(=O)(=O)C3(C(=O)NO)CCOCC3)CC2)nc1"
unit_spec = "nM"
readout_value = 0.33


---

Target: MMP-1 (Homo sapiens)
Construct: made in house; host or cells: MMP-1-transfected HT-1080 cells (spent media)
Sequence (P03956 100-469): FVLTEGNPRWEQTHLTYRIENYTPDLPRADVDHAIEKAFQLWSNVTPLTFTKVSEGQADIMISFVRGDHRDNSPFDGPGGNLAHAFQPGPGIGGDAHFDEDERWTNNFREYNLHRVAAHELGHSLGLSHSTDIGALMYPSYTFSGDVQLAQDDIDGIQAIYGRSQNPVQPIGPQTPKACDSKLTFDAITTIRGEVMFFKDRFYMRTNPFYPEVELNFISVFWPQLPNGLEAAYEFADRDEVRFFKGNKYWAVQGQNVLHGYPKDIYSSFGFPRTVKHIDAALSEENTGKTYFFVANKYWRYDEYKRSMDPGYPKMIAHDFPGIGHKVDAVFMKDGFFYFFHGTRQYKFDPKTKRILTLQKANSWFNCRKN
Assay: MMP-1 inhibition (in vitro Ki)
Format: biochemical
Settings: Table 9; read-out: MMP-1 Ki (IC-50)
MEASURED_METRIC: Ki (µM)

[[record]]
compound = "Cc1ccc(N2CCC(C(=O)NO)(S(=O)(=O)N3CCC(c4ccc(CCC(F)(F)C(F)(F)F)cn4)CC3)CC2)cn1 [Example A131]"
measured_metric = "Ki"
censoring_operator = ">"
readout_value = 10

[[record]]
compound = "C/C(COc1ccc(C2CCN(S(=O)(=O)C3(C(=O)NO)CCOCC3)CC2)nc1)=N/O [Example A169]"
measured_metric = "Ki"
censoring_operator = "="
readout_value = 5.37

[[record]]
compound = "CN(C(=O)CCCC1CCN(S(=O)(=O)C2(C(=O)NO)CCOCC2)CC1)c1ccc(F)cc1 [Example A146]"
measured_metric = "Ki"
censoring_operator = ">"
readout_value = 10

[[record]]
compound = "CN(C(=O)CCCC1CCN(S(=O)(=O)C2(C(=O)NO)CCOCC2)CC1)C1CCCCC1 [Example A144]"
measured_metric = "Ki"
censoring_operator = ">"
readout_value = 10

[[record]]
compound = "CCS(=O)(=O)c1ccc(N2CCN(S(=O)(=O)C3(C(=O)NO)CCOCC3)CC2)cc1 [Example A164]"
measured_metric = "Ki"
censoring_operator = ">"
readout_value = 10

[[record]]
compound = "COCC(=O)N1CCC(C(=O)NO)(S(=O)(=O)N2CCC(c3ccc(CCC(F)(F)C(F)(F)F)cn3)CC2)CC1 [Example A109]"
measured_metric = "Ki"
censoring_operator = "="
readout_value = 8.3

[[record]]
compound = "O=C(NO)C1(S(=O)(=O)N2CCC(c3ccc(CCc4ccsc4)cn3)CC2)CCOCC1 [Example A95]"
measured_metric = "Ki"
censoring_operator = "="
readout_value = 7.63

[[record]]
compound = "CN(Cc1ccco1)C(=O)CCCC1CCN(S(=O)(=O)C2(C(=O)NO)CCOCC2)CC1 [Example A141]"
measured_metric = "Ki"
censoring_operator = "="
readout_value = 6.9


---

pKi reference
Target: MMP-13 (Homo sapiens)
Construct: made in house; host or cells: baculovirus / insect cells
Assay: In vitro MMP inhibition, Ki determination (fluorogenic substrate II)
Format: biochemical
Conditions: value outside parentheses; read-out: MMP-13 Ki
Experimental: Several hydroxamic acids and salts thereof were analyzed in in vitro assays to determine their ability to inhibit the MMP cleavage of peptide substrates. […] and IC50 constants were calculated from the assayed hydroxamic acid-MMP interactions. […] The assays from which the Ki determinations were made were performed as follows. […] In the absence of MMP inhibitory activity, substrate II was cleaved at the Gly-Leu bond resulting in an increase of relative fluorescence. […]
pKi: −log10 of the molar value.
MEASURED_METRIC: pKi

[[record]]
compound = "CCC(F)(F)CCc1ccc(C2CCN(S(=O)(=O)C3(C(=O)NO)CCOCC3)CC2)cn1 [Example 411]"
readout_value = 8.11

[[record]]
compound = "O=C(NO)C1(S(=O)(=O)N2CCC(c3ccc(OC(F)(F)C(F)F)cc3)CC2)CCOCC1 [Example 337]"
readout_value = 9.15

[[record]]
compound = "CCN1CCC(C(=O)NO)(S(=O)(=O)N2CCN(c3ccc(-c4ccccc4)c(F)c3)CC2)CC1 [Example 341]"
readout_value = 8.59

[[record]]
compound = "CCCCCc1ccc(N2CCN(S(=O)(=O)C3(C(=O)NO)CCN(C4CC4)CC3)CC2)cc1 [Example 272]"
readout_value = 9.48

[[record]]
compound = "O=C(NO)C1(S(=O)(=O)N2CCC(c3ccc(CCC(F)(F)F)cn3)CC2)CCOCC1 [Example 367]"
readout_value = 9.08

[[record]]
compound = "CCCCOc1ccc(N2CCN(S(=O)(=O)C3(C(=O)NO)CCN(Cc4ccccc4)CC3)CC2)cc1F [Example 285]"
readout_value = 8.69

[[record]]
compound = "Cc1ccc(-c2ccc(C3CCN(S(=O)(=O)C4(C(=O)NO)CCOCC4)CC3)nc2)s1 [Example 416]"
readout_value = 8.87

[[record]]
compound = "O=C(NO)C1(S(=O)(=O)N2CCN(c3ccc(OCC(F)(F)C(F)F)cc3)CC2)CCOCC1 [Example 336]"
readout_value = 9.28

[[record]]
compound = "CCCCOc1ccc(N2CCN(S(=O)(=O)C3(C(=O)NO)CCN(C(=O)C(C)C)CC3)CC2)cc1 [Example 273]"
readout_value = 9.50

[[record]]
compound = "O=C(NO)C1(S(=O)(=O)N2CCN(c3ncc(-c4ccc(OC(F)(F)F)cc4)s3)CC2)CCOCC1 [Example 364]"
readout_value = 9.97

[[record]]
compound = "CCCCOc1ccc(N2CCN(S(=O)(=O)C3(C(=O)NO)CCN(C(=O)CN)CC3)CC2)cc1 [Example 292]"
readout_value = 9.01

[[record]]
compound = "COCCN1CCC(C(=O)NO)(S(=O)(=O)N2CCC(c3ccc(CCC(F)(F)C(F)(F)F)cc3)CC2)CC1 [Example 312]"
readout_value = 9.70

[[record]]
compound = "CS(=O)(=O)c1ccc(N2CCN(S(=O)(=O)C3(C(=O)NO)CCOCC3)CC2)cc1 [Example 300]"
readout_value = 7.37

[[record]]
compound = "CCCCc1ccc(N2CCN(S(=O)(=O)C3(C(=O)NO)CCN(CCOC)CC3)CC2)nc1 [Example 270]"
readout_value = 9.47

[[record]]
compound = "CCCCOc1ccc(N2CCN(S(=O)(=O)C3(C(=O)NO)CCN(c4ccc(C)cc4)CC3)CC2)cc1F [Example 296]"
readout_value = 8.04

[[record]]
compound = "COCCOc1ccc(N2CCN(S(=O)(=O)C3(C(=O)NO)CCN(C4CC4)CC3)CC2)cc1F [Example 297]"
readout_value = 8.85

[[record]]
compound = "CC(C)CCOc1ccc(N2CCN(S(=O)(=O)C3(C(=O)NO)CCOCC3)CC2)cc1 [Example 279]"
readout_value = 9.49


---

pKi reference
Target: MMP-2 (Homo sapiens, UniProt P08253)
Construct: made in house; host or cells: MMP-2-transfected p2AHT2 cells
Sequence (P08253 110-660): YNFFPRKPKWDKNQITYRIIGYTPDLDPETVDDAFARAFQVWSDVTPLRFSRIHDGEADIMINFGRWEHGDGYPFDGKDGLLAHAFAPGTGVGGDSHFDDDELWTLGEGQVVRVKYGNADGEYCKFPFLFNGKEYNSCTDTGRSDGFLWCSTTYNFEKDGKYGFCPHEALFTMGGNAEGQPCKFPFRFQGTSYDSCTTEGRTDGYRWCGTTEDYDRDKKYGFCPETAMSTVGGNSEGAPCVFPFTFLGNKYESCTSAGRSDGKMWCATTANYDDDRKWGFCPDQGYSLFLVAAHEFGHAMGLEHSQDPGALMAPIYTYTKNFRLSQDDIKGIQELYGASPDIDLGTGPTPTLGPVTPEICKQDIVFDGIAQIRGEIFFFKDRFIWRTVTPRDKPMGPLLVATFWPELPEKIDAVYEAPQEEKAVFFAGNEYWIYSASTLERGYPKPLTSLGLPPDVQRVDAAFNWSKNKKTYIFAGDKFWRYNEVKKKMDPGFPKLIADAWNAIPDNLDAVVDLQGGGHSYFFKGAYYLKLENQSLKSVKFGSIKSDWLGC
Assay: In vitro MMP inhibition, Ki determination (fluorogenic substrate II)
Type: biochemical
Conditions: value not in parenthesis; read-out: MMP-2 Ki
pKi: −log10 of the molar value.
MEASURED_METRIC: pKi

[[record]]
substance_smiles = "CCCCOc1ccc(N2CCN(S(=O)(=O)C3(C(=O)NO)CCN(c4cccnc4)CC3)CC2)cc1"
target_or_test_system = "MMP-2 (Homo sapiens, UniProt P08253)"
readout_value = 8.97

[[record]]
substance_smiles = "CCCCOc1ccc(N2CCN(S(=O)(=O)C3(C(=O)NO)CCN(c4ncc(CC)cn4)CC3)CC2)cc1"
target_or_test_system = "MMP-2 (Homo sapiens, UniProt P08253)"
readout_value = 8.74

[[record]]
substance_smiles = "CCCCOc1ccc(N2CCN(S(=O)(=O)C3(C(=O)NO)CCN(CCN(CC)CC)CC3)CC2)cc1"
target_or_test_system = "MMP-2 (Homo sapiens, UniProt P08253)"
readout_value = 9.12

[[record]]
substance_smiles = "COCCN1CCC(C(=O)NO)(S(=O)(=O)N2CCN(c3ccccn3)CC2)CC1"
target_or_test_system = "MMP-2 (Homo sapiens, UniProt P08253)"
readout_value = 8.80

[[record]]
substance_smiles = "COCCN1CCC(C(=O)NO)(S(=O)(=O)N2CCN(c3ccc(CCCCC(C)C)cc3)CC2)CC1"
target_or_test_system = "MMP-2 (Homo sapiens, UniProt P08253)"
readout_value = 9.01

[[record]]
substance_smiles = "O=C(NO)C1(S(=O)(=O)N2CCN(c3ccc(OCC(F)(F)C(F)(F)F)cc3)CC2)CCOCC1"
target_or_test_system = "MMP-2 (Homo sapiens, UniProt P08253)"
readout_value = 9.27

[[record]]
substance_smiles = "CCCCOc1ccc(N2CCN(S(=O)(=O)C3(C(=O)NO)CCN(c4ccc(OC)nc4)CC3)CC2)cc1"
target_or_test_system = "MMP-2 (Homo sapiens, UniProt P08253)"
readout_value = 9.01

